Molecular target: T1, human TNFR1 (recombinant, R&D Systems cat no. 636-R1/CF, biotinylated) (human, UniProt P19438 30-211, limits assumed, biotinylated with EZ-Link NHS-LC-LC-biotin)
T1 construct: it is not tied to the BIAcore reagent; also called p55; hTNFR1
T1 sequence (looked up): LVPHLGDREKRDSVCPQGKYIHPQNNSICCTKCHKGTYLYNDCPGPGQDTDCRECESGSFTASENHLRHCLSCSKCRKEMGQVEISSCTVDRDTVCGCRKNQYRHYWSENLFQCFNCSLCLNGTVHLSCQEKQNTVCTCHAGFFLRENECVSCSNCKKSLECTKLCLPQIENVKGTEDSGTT
Assay: BIAcore, human TNFR1
Would you kindly list pKd for each of these binders?
Just the number, please; pKd means minus log10 of the concentration in mol/L.

Measured pKd of DOM1h-574-12 (other, VH dAb) VH: EVQLLESGGGLVQPGGSLRLSCAASGFTFVKYSMGWVRQAPGKGLEWVSQISNTGDHTYYADSVKGRFTISRDNSKNTLYLQMNSLRAEDTAVYYCAKYTGRWEPFDYWGQGTLVTVSS : 7.64

Documented pKd of DOM1h-574-10 (other, VH dAb) VH: EVQLLESGGGLVQPGGSLRLSCAASGFTFGKYSMGWVRQAPGKDLEWVSQISNTGGHTYYADSVKGRFTISRDNSKNTLYLQMNSLRAEDTAVYYCAIYTGRWEPFDYWGQGTLVTVSS : 7.72

Noted for DOM1h-574-18 (other, VH dAb) VH: EVQLLESGGGLVQPGGSLRLSCAASGFTFGKYSMGWVRQAPGKDLEWVSQISNTGDRTYYADSVKGRFTISRDNSKNTLYLQMNSLRAEDTAVYYCAIYTGRWEPFDYWGQGTLVTVSS : its pKd reads 8.39

Looking up DOM1h-574-11 (other, VH dAb) VH: EVQLLESGGGLVQPGGSLRLSCAASGFTFVKYSMGWVRQAPGKGLEWVSQISNTGGHTYYADSVKGRFTISRDNSKNTLYLQMNSLRAEDTAVYYCAKYTGRWEPFDHWGQGTLVTVSS , I see its pKd listed as 6.70
